System: MS2 coat protein
Assay method text: apparent KD of MS2 coat protein; higher = weaker reporter binding
Experimental conditions: Eterna round: R107; input ligand: none
apparent KD of MS2 coat protein values for the sequences below.
# number only, unit µM dropped from output

// solved cases for apparent KD of MS2 coat protein follow
ACUAGUUGUGCAGAUACCAGACACGAGGAUCACCCGUGUUUGGGAUGUUCGCAUCUUCCUGUCCCUUGGCAGCUGUACAUCUAGA [Omei Theo B Exc v8] :: 0.0151
CCUCGACAUGAGGAUCACCCAUGUAGAGAUACCAGCCUGUGAGAUGGCCCUUGGCAGCUCAUAUAGGGUACGGGAGUCGUUUCGA [Eslaqu] :: 0.0222
AAGACAUGAGGAUCACCCAUGUCGACAAAACGAGGACCGGUACGGCCGCCACUCGAAAGCAAAUGAGCGCAUGCGGCCUGGGUAU [Exclusion Tryp A GF2] :: 0.0119
UAUCCACAUGAGGAUCACCCAUGUGAGGAAGGAGCGGUGAAUGCACCAGGUAGGUCGCCUUGCUGAGGACAGCCGGUGGAUUCGU [Exclusion - Arginine A (Freestyle 25)] :: 0.0124
GUCUGUGUCUGAAGGAGCGACAUGAGGAUCACCCAUGUCUCCCGUUAUGGGAGUUCCUUAGGUCAGGUAGGUCGCAGACACAGAC [#1 Exclusion - Arginine B Attempt #27 (Inspired by Omei)] :: 0.123

Pending sequence:
Record summary for GAAGGAGAACUCAUGACUCCUUCCCUGGAAGGAGCGAGCGAAAGCUCAGGUAGGUCGCCAGAAACAUGAGGAUCACCCAUGUAAU [(A)''-(M)'-(A)'-(Arg1)-(Arg2)-(M1)-(M2)_Design4] : reported apparent KD of MS2 coat protein = 0.0374
